Test system: Nrf2
Test: Nrf2 induction, SDS-PAGE and Western blotting of nuclear extracts
Assay type: cell-based
Conditions: cells treated 1, 2 and 4 hr at most protective concentration
measurementLabel: Nrf2 (induction of transcription factor Nrf2)

In [3]: df
Out[3]:
                                 smilesrepr  valuereported
0         COc1cc(-c2ccc(O)c(O)c2)nc2ccccc12             No
1   Cc1cc(O)c(C(=O)/C=C/c2ccc(O)c(O)c2)cc1C            Yes
2        CCOc1cc(-c2ccc(O)c(O)c2)nc2ccccc12             No
3  CN(C)c1ccc(-c2oc3c(ccc4ccccc43)c(=O)c2O)cc1             No

---

System: HT22 cells
Experiment: in vitro ischemia assay (HT22 cell IAA assay)
Format: cell-based, mouse
Conditions: relative to Fisetin, in vitro ischemia
measurementLabel: improvement of neuroprotective activity/potency over Fisetin

In [3]: df
Out[3]:
                                   molecule  measurementtarget  valuereported
0   Cc1ccc2oc(-c3ccc(O)c(O)c3)c(O)c(=O)c2c1         HT22 cells    10-100 fold
1  O=c1c(O)c(-c2ccc(O)c(O)c2)oc2ccccc12 [CMS-04P, reference compound]         HT22 cells        ~6 fold
2     Oc1ccc(-c2cc(OC3CCCC3)c3ccccc3n2)cc1O         HT22 cells     > 400 fold
3   O=c1cc(-c2ccc(O)c(O)c2)oc2ccc3ccccc3c12         HT22 cells       ~40 fold

---

Tested on: Nrf2
Assay: Nrf2 induction, SDS-PAGE and Western blotting of nuclear extracts
Assay type: cell-based
Settings: cells treated 1, 2 and 4 hr at most protective concentration
measurementLabel: Nrf2 (induction of transcription factor Nrf2)

>>> print(df.to_string())
                                   compound  valuereported
0     CC(C)Oc1cc(-c2ccc(O)c(O)c2)nc2ccccc12             No
1     Oc1ccc(-c2cc(OC3CCCC3)c3ccccc3n2)cc1O             No
2   O=C(/C=C/c1ccc(O)c(O)c1)c1ccc2ccccc2c1O            Yes
3  COc1ccc(/C=C/C(=O)c2cc(C)c(C)cc2O)cc1OCc1ccccc1            Yes
4  O=c1c(O)c(-c2ccc(N3CCCC3)c(O)c2)oc2c1ccc1ccccc12             No
5  O=c1c(O)c(-c2ccc(O)c(O)c2)oc2ccccc12 [CMS-04P, reference compound]            Yes
6  Cc1cc2oc(-c3ccc(N(C)C)cc3)c(O)c(=O)c2cc1C             No
7  Cc1cc2oc(-c3ccc(N4CCCC4)cc3)c(O)c(=O)c2cc1C             No
8  O=c1c(O)c(-c2ccc(O)c(O)c2)oc2cc(O)ccc12 [Fisetin, 3,7,3′,4′-tetrahydroxy flavone]            Yes

---

Consider the following molecules and their measured improvement of neuroprotective activity/potency over Fisetin readings.
System: HT22 cells
Assay: in vitro ischemia assay (HT22 cell IAA assay)
Format: cell-based, mouse
Settings: relative to Fisetin, in vitro ischemia
Description: For these studies, cultured HT22 mouse hippocampal cells were used as an in vitro stroke assay. […] Cell survival was measured using a standard colorimetric MTT (3-(4,5-dimethylthiazol-2-yl)-2,5-diphenyltetrazolium bromide) assay for cell survival MTT is a pale yellow substrate that is cleaved by living cells to yield a dark blue formazan product. Cytotoxicity assay. […] The absorbance at 570 nm was measured on the following day with a microplate reader (Molecular Devices). […]
measurementLabel: improvement of neuroprotective activity/potency over Fisetin

>>> df
                                   molecule  valuereported
0  O=c1cc(-c2ccc(O)c(O)c2)oc2c1ccc1ccccc12 [CMS-02P, reference compound]       ~40 fold
1         COc1cc(-c2ccc(O)c(O)c2)nc2ccccc12       ~75 fold
2        CCOc1cc(-c2ccc(O)c(O)c2)nc2ccccc12      ~140 fold
3         O=c1cc(-c2ccc(O)c(O)c2)oc2ccccc12         6 fold
